Known Mouse plasma % remaining 2 h of a selection of molecules
Experiment: Mouse plasma stability
Type: in vitro ADME
Please give a number only; it is taken to be in %.

# molecule CC(=O)N[C@@H]1[C@H](Oc2cccc(C(F)(F)F)c2-c2cccc(NS(C)(=O)=O)c2)OC(CO)[C@H](O)[C@@H]1O (stereo partly shown) ; its Mouse plasma % remaining 2 h = 92.2

So, `CC(=O)N[C@H]1[C@H](Oc2cccc(F)c2-c2cccc(NS(C)(=O)=O)c2)O[C@H](CO)[C@H](O)[C@@H]1O` ? Its Mouse plasma % remaining 2 h was 89.1

Record CC(=O)N[C@@H]1[C@H](Oc2cccc(C#N)c2-c2cccc(NS(C)(=O)=O)c2)OC(CO)[C@H](O)[C@@H]1O (stereo partly shown) . Reported Mouse plasma % remaining 2 h: 89.1

Record summary for Cc1cccc(O[C@@H]2OC(CO)[C@H](O)[C@H](O)[C@@H]2NC(=O)C(F)(F)F)c1-c1cccc(NS(C)(=O)=O)c1 (stereo partly shown) : reported Mouse plasma % remaining 2 h = 88.9

----------
Molecular target: FmlHLD (Escherichia coli)
Construct: 6xHis (C); made in house; host or cells: E. coli C600, periplasm, pTRC99a
Sequence (P77588 25-182): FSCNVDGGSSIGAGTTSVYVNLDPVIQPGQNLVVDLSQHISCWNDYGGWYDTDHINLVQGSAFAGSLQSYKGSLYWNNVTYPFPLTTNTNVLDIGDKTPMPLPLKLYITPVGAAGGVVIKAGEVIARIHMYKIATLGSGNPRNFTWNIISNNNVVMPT
Assay: biochemical
Format: binding, E. coli
Conditions: read-out: % Inhibition at [μM] [100], compound at 100 μM; inhibition of FmlHLD binding to ds-BSM
reported endpoint: inhibition at 100 µM (%)
Number only, in %; omit the unit.

# count of solved cases: 3
compound | inhibition at 100 µM [%]
COc1cc(OC)cc(O[C@@H]2O[C@H](CO)[C@H](O)[C@H](O)[C@H]2O)c1 [Compound 151d] | 76.4
N#Cc1ccccc1O[C@@H]1O[C@H](CO)[C@H](O)[C@H](O)[C@H]1O [Compound 137b] | 94.5
N#Cc1ccc(O[C@@H]2O[C@H](CO)[C@H](O)[C@H](O)[C@H]2O)cc1 [Compound 152b] | 85.7

Entry O=[N+]([O-])c1ccccc1O[C@@H]1O[C@H](CO)[C@H](O)[C@H](O)[C@H]1O [ONPG, o-nitrophenyl β-galactoside, reference compound] under FmlHLD (Escherichia coli) had inhibition at 100 µM of 93

Form field inhibition at 100 µM for item O=c1ccc2nc3ccc(O[C@@H]4O[C@H](CO)[C@H](O)[C@H](O)[C@H]4O)cc3oc-2c1 [Resorufin Gal, reference compound] on FmlHLD (Escherichia coli): 80.4

----------
As shown below, each of these compounds has a reported inhibition at 1 µM value.
Target: FmlHLD (Escherichia coli)
Construct: 6xHis (C); made in house; host or cells: E. coli C600, periplasm, pTRC99a
Experiment: biochemical
Format: binding, E. coli
Conditions: read-out: % Inhibition at [μM] [1], compound at 1 μM; inhibition of FmlHLD binding to ds-BSM
// return numeric value only (unit: %, not printed)

Solved entries (count: 8):
compound | reported endpoint | meas value
COc1ccc(O)cc1-c1ccccc1O[C@@H]1O[C@H](CO)[C@H](O)[C@H](O)[C@H]1NC(C)=O [AM2073] | inhibition at 1 µM | 34.2
CC(=O)N[C@H]1[C@H](Oc2ccccc2-c2cccc(S(C)(=O)=O)c2)O[C@H](CO)[C@H](O)[C@@H]1O [AM2059] | inhibition at 1 µM | 23.3
COc1ccc(C(=O)O)cc1-c1ccccc1O[C@@H]1O[C@H](CO)[C@H](O)[C@H](O)[C@H]1NC(C)=O [AM2051] | inhibition at 1 µM | 15.9
COC(=O)Nc1cccc(-c2ccccc2O[C@@H]2O[C@H](CO)[C@H](O)[C@H](O)[C@H]2NC(C)=O)c1 [AM2065] | inhibition at 1 µM | 45.3
CCOC(=O)c1ccc(OC)c(-c2ccccc2O[C@@H]2O[C@H](CO)[C@H](O)[C@H](O)[C@H]2NC(C)=O)c1 [AM2053] | inhibition at 1 µM | 13.7
OC[C@H]1O[C@@H](Oc2cccc3cccnc23)[C@H](O)[C@@H](O)[C@H]1O [Compound 8HQG, reference compound] | inhibition at 1 µM | 19.2
CC(=O)N[C@H]1[C@H](Oc2ccccc2-c2cccc(C(F)(F)F)c2)O[C@H](CO)[C@H](O)[C@@H]1O [AM2037] | inhibition at 1 µM | 15.7
CC(=O)N[C@H]1[C@H](Oc2ccccc2-c2cccc([N+](=O)[O-])c2)O[C@H](CO)[C@H](O)[C@@H]1O [AM2030] | inhibition at 1 µM | 9.25

What the record says about O=C(O)c1cccc(-c2ccccc2O[C@@H]2O[C@H](CO)[C@H](O)[C@H](O)[C@H]2O)c1 [Compound 200b] : inhibition at 1 µM is 12.3

The recorded inhibition at 1 µM for COc1ccccc1O[C@@H]1O[C@H](CO)[C@H](O)[C@H](O)[C@H]1O [Compound 149e] is 9.99
